System: MDA-MB-453
Assay: normalised response (% of control), CellTiter-Glo; higher = more viable cells (100 = DMSO, 0 = benzethonium chloride kill control)
Conditions: incubation time: 72 h
Give normalised response for every item shown.

Return reported normalised response; argument: CC(C)C[C@@H](C(=O)N[C@H](C(=O)OC1CCCC1)c1ccccc1)[C@H](O)C(=O)NO [Tosedostat] (100 nM) 64.5%

Return reported normalised response; argument: Cc1[nH]c2ccccc2c1CCNCc1ccc(/C=C/C(=O)NO)cc1 [Panobinostat] (10 nM) 50.6%

Return reported normalised response; argument: COC(=O)c1ccc2c(c1)NC(=O)/C2=C(\Nc1ccc(N(C)C(=O)CN2CCN(C)CC2)cc1)c1ccccc1 [Nintedanib] (100 nM) 109%

Return reported normalised response; argument: CCOC(=O)CCNc1cc(N2CCc3ccccc3CC2)nc(-c2ccccn2)n1 [GSK-J4] (1000 nM) 70.3%

Return reported normalised response; argument: COc1cc(O)c2c(c1)/C=C/C[C@H](O)[C@H](O)C(=O)/C=C\C[C@H](C)OC2=O [(5Z)-7-Oxozeaenol] (100 nM) 108%

Return reported normalised response; argument: COCC[n+]1c2c(n(Cc3cnccn3)c1C)C(=O)c1ccccc1C2=O [YM155] (100 nM) 27.8%

Return reported normalised response; argument: CNC(=O)c1cc(Oc2ccc(NC(=O)Nc3ccc(Cl)c(C(F)(F)F)c3)c(F)c2)ccn1 [Regorafenib] (100 nM) 105%

---

System: BT-474
Experiment: drug sensitivity score (DSS), CellTiter-Glo (DSS (AUC-based score)); higher = stronger drug effect (viability inhibition or cytotoxicity); extreme values may be limits of the assay
Details: incubation time: 72 h
Assay Endpoint: drug sensitivity score
Lab note: jot down the number only; don't add units.

Return reported drug sensitivity score; argument: CNC(=O)c1cc(Oc2ccc(NC(=O)Nc3ccc(Cl)c(C(F)(F)F)c3)c(F)c2)ccn1 2.89

Return reported drug sensitivity score; argument: O=P1(N(CCCl)CCCl)NCCCO1 (centres undefined) [Cyclophosphamide] 0

Return reported drug sensitivity score; argument: CNC(=O)c1cccc(-c2ccc3c(N4CCOC[C@@H]4C)nc(N4CCOC[C@@H]4C)nc3n2)c1 8.78

Return reported drug sensitivity score; argument: Cc1ccc(NC(=O)c2ccc(CN3CCN(C)CC3)cc2)cc1Nc1nc(-c2cccnc2)cs1 1.81

---

Test system: BT-549
Assay: normalised response (% of control), CellTox Green; higher = less cell death (100 = DMSO, 0 = benzethonium chloride kill control)
Conditions: incubation time: 72 h
Assay Endpoint: normalised response (%)
# unit: % | format: bare number

Return reported normalised response; argument: COc1cc2c(NC3CCN(C(C)C)CC3)nc(N3CCC(F)(F)CC3)nc2cc1OCCCN1CCCC1 [UNC0642] (100 nM) 101

Return reported normalised response; argument: NC(=O)c1ccc(I)c([N+](=O)[O-])c1 [Iniparib] (100 nM) 106

Return reported normalised response; argument: CN(C)c1nc(N(C)C)nc(N(C)C)n1 [Altretamine] (1000 nM) 107

Return reported normalised response; argument: O=P1(N(CCCl)CCCl)NCCCO1 (configuration not stated) [Cyclophosphamide] (4000 nM) 98.7

Return reported normalised response; argument: CNC(=O)c1ccc(N2C(=S)N(c3ccc(C#N)c(C(F)(F)F)c3)C(=O)C2(C)C)cc1F [Enzalutamide] (1000 nM) 87

Return reported normalised response; argument: CCOC(=O)CCNc1cc(N2CCc3ccccc3CC2)nc(-c2ccccn2)n1 [GSK-J4] (10000 nM) 81.8

Return reported normalised response; argument: S=P(N1CC1)(N1CC1)N1CC1 [Thio-TEPA] (500 nM) 108

Return reported normalised response; argument: S=P(N1CC1)(N1CC1)N1CC1 [Thio-TEPA] (5000 nM) 109

Return reported normalised response; argument: CCn1c(-c2nonc2N)nc2cnc(Oc3cccc(NC(=O)c4ccc(OCCN5CCOCC5)cc4)c3)cc21 (1000 nM) 113

Return reported normalised response; argument: CN(C)c1nc(N(C)C)nc(N(C)C)n1 [Altretamine] (10000 nM) 97.2

Return reported normalised response; argument: O=C(/C=C/c1cccc(S(=O)(=O)Nc2ccccc2)c1)NO [Belinostat] (100 nM) 100

Return reported normalised response; argument: COc1cc(OC2CCN(C)CC2)ccc1Nc1ncc2c(n1)n(C1CCCC1)c(=O)n2C [AZ 3146] (100 nM) 111

Return reported normalised response; argument: CCc1c2c(nc3ccc(OC(=O)N4CCC(N5CCCCC5)CC4)cc13)-c1cc3c(c(=O)n1C2)COC(=O)[C@]3(O)CC [Irinotecan] (1000 nM) 121

Return reported normalised response; argument: O=P1(N(CCCl)CCCl)NCCCO1 (configuration not stated) [Cyclophosphamide] (40000 nM) 100

Return reported normalised response; argument: O=C(Nc1cccnc1)N1CCC(Cc2cccc(Oc3ccc(C(F)(F)F)cn3)c2)CC1 [PF-3845] (10000 nM) 111

Return reported normalised response; argument: Oc1ccc2c(c1)CC[C@H](c1ccccc1)[C@@H]2c1ccc(OCCN2CCCC2)cc1 [Lasofoxifene] (10 nM) 108

Return reported normalised response; argument: NC(=O)c1ccc(I)c([N+](=O)[O-])c1 [Iniparib] (10000 nM) 113

Return reported normalised response; argument: COc1cc2ncnc(Nc3ccc(F)c(Cl)c3)c2cc1OCCCN1CCOCC1 [Gefitinib] (1000 nM) 123

Return reported normalised response; argument: COc1cc2c(NC3CCN(C(C)C)CC3)nc(N3CCC(F)(F)CC3)nc2cc1OCCCN1CCCC1 [UNC0642] (10000 nM) 104

Return reported normalised response; argument: Cc1[nH]c2ccccc2c1CCNCc1ccc(/C=C/C(=O)NO)cc1 [Panobinostat] (1000 nM) 69.6

Return reported normalised response; argument: O=C(Nc1ccncc1)C(=O)c1cn(Cc2ccc(Cl)cc2)c2ccccc12 [Indibulin] (100 nM) 94.8

Return reported normalised response; argument: COC(=O)c1ccc2c(c1)NC(=O)/C2=C(\Nc1ccc(N(C)C(=O)CN2CCN(C)CC2)cc1)c1ccccc1 [Nintedanib] (10000 nM) 27.7

---

System: HDQ-P1
Conditions: 72 h
Give EC50, CellTiter-Blue viability for every item shown.
Kindly format the answer as number then unit.

Return reported EC50, CellTiter-Blue viability; argument: COc1cc2/c(=N/c3ccc(Br)cc3F)nc[nH]c2cc1OCC1CCN(C)CC1 191 nM

Return reported EC50, CellTiter-Blue viability; argument: Nc1cc(C(F)(F)F)c(-c2cc(N3CCOCC3)nc(N3CCOCC3)n2)cn1 1260 nM

Return reported EC50, CellTiter-Blue viability; argument: COCC[n+]1c2c(n(Cc3cnccn3)c1C)C(=O)c1ccccc1C2=O 11.4 nM

Return reported EC50, CellTiter-Blue viability; argument: CC(C)C[C@@H](C(=O)N[C@H](C(=O)OC1CCCC1)c1ccccc1)[C@H](O)C(=O)NO 268 nM

Return reported EC50, CellTiter-Blue viability; argument: COc1cc2ncnc(Nc3ccc(F)c(Cl)c3)c2cc1OCCCN1CCOCC1 3330 nM

---

Test system: HCC1143
Experiment: normalised viability (% of control), CellTiter-Blue; higher = more viable cells (100 = DMSO, 0 = benzethonium chloride kill control)
Conditions: incubation time: 72 h
Give normalised viability for every item shown.
# unit: % | format: bare number

Return reported normalised viability; argument: O=C(Nc1cccnc1)N1CCC(Cc2cccc(Oc3ccc(C(F)(F)F)cn3)c2)CC1 [PF-3845] (1 nM) 92.8

Return reported normalised viability; argument: CNC(=O)c1cc(Oc2ccc(NC(=O)Nc3ccc(Cl)c(C(F)(F)F)c3)c(F)c2)ccn1 [Regorafenib] (1 nM) 100

Return reported normalised viability; argument: O=P1(N(CCCl)CCCl)NCCCO1 (stereo unspecified) [Cyclophosphamide] (4 nM) 96.8

Return reported normalised viability; argument: C=C1C[C@@H]2[C@H](CC[C@]3(C)C(=O)CC[C@@H]23)[C@@]2(C)C=CC(=O)C=C12 [Exemestane] (1 nM) 85.9

Return reported normalised viability; argument: c1ccc2c(CCNc3ccc(Nc4ccncc4)cc3)c[nH]c2c1 [Serdemetan] (1 nM) 86.3

Return reported normalised viability; argument: Cc1cc(Nc2cc(CN3CCOCC3)c3nc(C)c(Cc4ccc(Cl)cc4F)n3n2)n[nH]1 (1 nM) 88.6

Return reported normalised viability; argument: Oc1ccc2c(c1)CC[C@H](c1ccccc1)[C@@H]2c1ccc(OCCN2CCCC2)cc1 [Lasofoxifene] (0.1 nM) 76.4

Return reported normalised viability; argument: COc1cc2/c(=N/c3ccc(Br)cc3F)nc[nH]c2cc1OCC1CCN(C)CC1 [Vandetanib] (1 nM) 106

Return reported normalised viability; argument: CC(C)C[C@@H](C(=O)N[C@H](C(=O)OC1CCCC1)c1ccccc1)[C@H](O)C(=O)NO [Tosedostat] (1 nM) 102

Return reported normalised viability; argument: N#Cc1ccc(COC[C@H]2O[C@@H](n3c(NCc4ccc(Cl)c(Cl)c4)nc4c(N)ncnc43)[C@H](O)[C@@H]2O)cc1 (1 nM) 99.9

Return reported normalised viability; argument: CN(C)CCOc1ccc(/C(=C(/CCCl)c2ccccc2)c2ccccc2)cc1 [Toremifene] (1 nM) 97.7
